TESTED TARGET: Neuronal acetylcholine receptor subunit alpha-7 (Rattus norvegicus, UniProt Q05941)
Sequence (Q05941 whole entry): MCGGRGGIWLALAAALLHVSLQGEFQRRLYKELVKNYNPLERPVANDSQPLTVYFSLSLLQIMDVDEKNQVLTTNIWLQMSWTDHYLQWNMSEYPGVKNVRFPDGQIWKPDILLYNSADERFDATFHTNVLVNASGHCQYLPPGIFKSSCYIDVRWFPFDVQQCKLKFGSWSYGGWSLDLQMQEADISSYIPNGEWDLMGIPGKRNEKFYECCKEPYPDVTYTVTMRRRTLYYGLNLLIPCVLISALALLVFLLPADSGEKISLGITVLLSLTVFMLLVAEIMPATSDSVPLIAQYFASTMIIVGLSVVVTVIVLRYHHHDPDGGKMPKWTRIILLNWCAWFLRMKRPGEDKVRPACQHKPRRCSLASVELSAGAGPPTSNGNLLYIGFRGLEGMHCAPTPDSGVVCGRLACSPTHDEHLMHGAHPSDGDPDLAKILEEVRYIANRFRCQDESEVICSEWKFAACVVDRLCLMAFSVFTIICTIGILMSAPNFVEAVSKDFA
RUN DESCRIPTION: Binding Assay: The [3H]-methyllycaconitine binding assay is a modification of the method described by Davies et al. in Neuropharmacol. 1999, 38, 679-690.Rat brain tissue (hippocampus or whole brain) is homogenized in homogenization buffer (10% w/v, 0.32 M sucrose, 1 mM EDTA, 0.1 mM phenylmethylsulphonyl fluoride (PMSF), 0.01% (w/v) NaN3, pH 7.4, 4 C.) at 600 rpm in a glass homogenizer. The homogenate is centrifuged (1000xg, 4 C., 10 min) and the supernatant is removed. The pellet is resuspended (20% w/v) and the suspension is centrifuged (1000xg, 4 C., 10 min). The two supernatants are combined and centrifuged (15 000xg, 4 C., 30 min). The pellet obtained in this way is referred to as the P2 fraction.The P2 pellet is suspended in binding buffer (50 mM Tris-HCl, 1 mM MgCl2, 120 mM NaCl, 5 mM KCl, 2 mM CaCl2, pH 7.4), and the suspension is centrifuged (15 000xg, 4 C., 30 min), twice.The residue is resuspended in binding buffer and incubated in a volume of 250 ul.
ASSAY METRIC: pKi
Note on pKi: it is the negative log10 of concentration, concentration in mol/L.

Some compounds with recorded pKi:
| INPUT SMILES | pKi |
| --- | --- |
| O=C(NC1CC1)c1cccc(-c2cccc3cc(C(=O)N[C@H]4CN5CCC4CC5)oc23)c1 | 8.52 |
| CNC(=O)NCc1ccccc1-c1cccc2cc(C(=O)N[C@H]3CN4CCC3CC4)sc12 | 8.48 |

Here is another compound to look at.
Report pKi for CN1CCN(C(=O)c2cccc(-c3cccc4cc(C(=O)N[C@H]5CN6CCC5CC6)oc34)c2)CC1 please.
7.85

Data origin, for the record: ChEMBL document CHEMBL3638567
